We begin with a simple list: items and their reported IC50.
# Test target: UniProt P32245
# Sequence (P32245 whole entry): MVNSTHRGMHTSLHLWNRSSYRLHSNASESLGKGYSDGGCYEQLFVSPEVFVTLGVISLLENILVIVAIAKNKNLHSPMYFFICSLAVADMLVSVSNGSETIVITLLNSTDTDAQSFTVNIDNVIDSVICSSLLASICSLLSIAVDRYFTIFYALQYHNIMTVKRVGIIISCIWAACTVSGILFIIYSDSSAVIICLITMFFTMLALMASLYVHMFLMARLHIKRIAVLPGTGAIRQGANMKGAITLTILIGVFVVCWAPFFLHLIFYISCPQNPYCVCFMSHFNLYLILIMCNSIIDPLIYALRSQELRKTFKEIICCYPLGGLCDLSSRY
# Procedure text: Cyclic AMP assay (HTRF), antagonist competition against NDP-α-MSH
# Conditions used: HEK293T cells stably expressing WT-hMC4R; inhibition of response to 4 nM NDP-α-MSH; cAMP

{"Molecule": "CCN(CCOC)C(=O)c1ccc2nc(Nc3ccc(OC)cc3)n(CCCN3CCCCC3)c2n1", "IC50": "1000 to 15000 nM"}
{"Molecule": "CC(C)CCN(CCC(C)C)C(=O)c1ccc2nc(Nc3ccc(C(C)(C)O)cc3)n(CCCN3CCCCC3)c2n1", "IC50": "< 100 nM"}
{"Molecule": "CCCCN(CCCC)C(=O)c1ccc2nc(N)n(CCCN3CCCCC3)c2n1", "IC50": "1000 to 15000 nM"}
{"Molecule": "CC(=O)c1ccc(Nc2nc3ccc(C(=O)N(CCC(C)C)CCC(C)C)nc3n2CCCN2CCCCC2)cc1", "IC50": "< 100 nM"}
{"Molecule": "CCCCN(CCCC)C(=O)c1ccc2nc(Nc3ccc(OC)cc3)n(CCCN3CCCCC3C)c2n1 (stereo not drawn)", "IC50": "< 100 nM"}
{"Molecule": "CCCCN(CCCC)C(=O)c1ccc2nc(Nc3ccc(C(=O)N(C)C)cc3)n(CCCN3CCCCC3)c2n1", "IC50": "100 to 1000 nM"}
{"Molecule": "COCCN(CCOC)C(=O)c1ccc2nc(Nc3ccc(OC)cc3)n(CCCN3CCCCC3)c2n1", "IC50": "1000 to 15000 nM"}
{"Molecule": "CCCN(CCC)C(=O)c1ccc2nc(Nc3ccc(OC)cc3)n(CCCN3CCCCC3)c2n1", "IC50": "100 to 1000 nM"}
{"Molecule": "CCCCN(CC#N)C(=O)c1ccc2nc(Nc3ccc(OC)cc3)n(CCCN3CCCCC3)c2n1", "IC50": "1000 to 15000 nM"}
{"Molecule": "COC(=O)c1ccc(Nc2nc3ccc(C(=O)N(CCC(C)C)CCC(C)C)nc3n2CCCN2CCCCC2)cc1", "IC50": "< 100 nM"}
{"Molecule": "CCCCN(CCCC)C(=O)c1ccc2nc(Nc3ccc(C(=O)N4CCN(C)CC4)cc3)n(CCCN3CCCCC3)c2n1", "IC50": "100 to 1000 nM"}
{"Molecule": "CCCCCN(CCCCC)C(=O)c1cc2c(cn1)nc(Nc1ccc(OC)cc1)n2CCCN1CCCCC1", "IC50": "< 100 nM"}
{"Molecule": "CCCCN(CCCC)C(=O)c1cc2c(cn1)nc(Nc1ccc(C)cc1)n2CCCN1CCCCC1", "IC50": "100 to 1000 nM"}
{"Molecule": "CCCCN(CCCC)C(=O)c1ccc2nc(-c3csc4ccccc34)n(CCCN3CCCCC3)c2n1", "IC50": "100 to 1000 nM"}
{"Molecule": "CCCCN(CCCC)Cc1ccc2nc(Nc3ccc(OC)cc3)n(CCCN3CCCCC3C)c2n1 (stereo not drawn)", "IC50": "1000 to 15000 nM"}
{"Molecule": "CCCCN(CCCC)C(=O)c1nc(O)c2nc(-c3ccc(OC)cc3)n(CCCN3CCCCC3)c2n1", "IC50": "100 to 1000 nM"}
{"Molecule": "COc1ccc(Nc2nc3ccc(C(=O)N(CCC4CC4)CCC4CC4)nc3n2CCCN2CCCCC2)cc1", "IC50": "< 100 nM"}
{"Molecule": "CCCCN(CCCC)C(=O)c1cnc2nc(Nc3ccc(OC)cc3)n(CCCN3CCCCC3)c2c1", "IC50": "1000 to 15000 nM"}
{"Molecule": "CCCCN(CCCC)C(=O)c1ccc2nc(Nc3cccc4ccccc34)n(CCCN3CCCCC3)c2n1", "IC50": "100 to 1000 nM"}
{"Molecule": "CCCCN(CCCC)C(=O)c1ccc2nc(-c3ccc(Br)cc3)n(CCCN3CCCCC3)c2n1", "IC50": "1000 to 15000 nM"}
{"Molecule": "COc1ccc(Nc2nc3ccc(C(=O)N(CC(C)C)CC(C)C)nc3n2CCCN2CCCCC2)cc1", "IC50": "100 to 1000 nM"}
{"Molecule": "CC(C)CCN(CCC(C)C)C(=O)c1ccc2nc(NCc3ccc4c(c3)OCO4)n(CCCN3CCOCC3)c2n1", "IC50": "100 to 1000 nM"}
{"Molecule": "CCCCN(CCCC)C(=O)c1ccc2nc(Nc3ccc(OC)cc3)n(CC(C)(C)CN(C)C)c2n1", "IC50": "1000 to 15000 nM"}
{"Molecule": "CCCCN(CCCC)C(=O)c1ccc2nc(Nc3ccc(C(=O)N4CCOCC4)cc3)n(CCCN3CCCCC3)c2n1", "IC50": "100 to 1000 nM"}
{"Molecule": "COc1ccc(Br)cc1-c1nc2cnc(C(=O)N(CCC(C)C)CCC(C)C)cc2n1CCCN1CCCCC1", "IC50": "1000 to 15000 nM"}
{"Molecule": "CC(C)CCN(CCC(C)C)C(=O)c1ccc2nc(-c3ccc4c(c3)OCO4)n(CCCN3CCCCC3)c2n1", "IC50": "100 to 1000 nM"}
{"Molecule": "COc1ccc(-c2nc3ccc(C(=O)N(CCC(C)C)CCC(C)C)nc3n2CCCN2CCOCC2)cc1", "IC50": "1000 to 15000 nM"}
{"Molecule": "CCCCN(CCCC)C(=O)c1ccc2nc(Nc3ccc(CC)cc3)n(CCCN3CCCCC3)c2n1", "IC50": "100 to 1000 nM"}
{"Molecule": "CCCCN(CCCC)C(=O)c1ccc2nc(SCC)n(CCCN3CCCCC3)c2n1", "IC50": "1000 to 15000 nM"}
{"Molecule": "CCCCN(CCCC)C(=O)c1cc2c(cn1)nc(NCc1ccccc1)n2CCCN1CCCCC1", "IC50": "< 100 nM"}
{"Molecule": "CCCCN(CCCC)C(=O)c1ccc2nc(Nc3ccccc3Br)n(CCCN3CCCCC3)c2n1", "IC50": "1000 to 15000 nM"}
{"Molecule": "COc1ccc(-c2nc3ccc(C(=O)N(CCC(C)C)CCC(C)C)nc3n2CCCN2CCCCC2)cc1", "IC50": "100 to 1000 nM"}
{"Molecule": "COc1ccc(Nc2nc3ccc(C(=O)N4CCCCCC4)nc3n2CCCN2CCCCC2)cc1", "IC50": "1000 to 15000 nM"}
